Catalogue of TRZAWR preemergence herbicidal rating values
System: TRZAWR (Wheat, Winter, cv Riband)
Assay: Preemergence herbicidal evaluation
Type: in vivo, Triticum aestivum
Settings: rate 0.2500 kg/ha; rated 4-5 weeks after treatment

Below, 3 compounds whose answers are already recorded.
>>> print(df.to_string())
                    structure_smiles_string  test_result
0  CCOC(=O)CN1C(=O)CO/C1=N/c1cc(-n2c(=O)cc(C(F)(F)F)n(C)c2=O)c(F)cc1Cl          7.0
1  CCOC(=O)CN1C(=O)CN(C)C1=Nc1cc(-n2c(=O)cc(C(F)(F)F)n(C)c2=O)c(F)cc1Cl          6.0
2  C=CCN1C(=O)CSC1=Nc1cc(N2C(=O)C3=C(CCCC3)C2=O)c(F)cc1Cl          0.0

Kindly review the next compound as well.
Entry `CCOC(=O)CN1C(=O)C2(CC2)SC1=Nc1cc(-n2c(=O)cc(C(F)(F)F)n(C)c2=O)c(F)cc1Cl` , TRZAWR (Wheat, Winter, cv Riband) data, TRZAWR preemergence herbicidal rating value: 5.0

====

System: CYPSE (Flatsedge)
Assay: Postemergence weed control under flooded paddy conditions
Assay type: in vivo, Cyperus serotinus
Conditions: rate 0.2500 kg/ha, postemergence weeds, 3-4 weeks after treatment
Catalogue of Herbicidal rating CYPSE values

Below, 2 molecules whose answers are already recorded.
                    structure_smiles_string       attribute_measured  test_result
0  C=CCN1C(=O)CSC1=Nc1cc(N2C(=O)C3=C(CCCC3)C2=O)c(F)cc1Cl  Herbicidal rating CYPSE          0.0
1  CCOC(=O)/C=C1/S/C(=N/c2cc(-n3c(=O)cc(C(F)(F)F)n(C)c3=O)c(F)cc2Cl)N(CC(=O)OCC)C1=O  Herbicidal rating CYPSE          0.0

Kindly review the next molecule as well.
Note to self: Herbicidal rating CYPSE recorded for `COC(=O)CCCN1C(=O)CSC1=Nc1cc(-n2c(=O)cc(C(F)(F)F)n(C)c2=O)c(F)cc1Cl` was 0.0

====

Test system: ORYSAT (Rice, Tebonnet)
Experiment: Postemergence herbicidal evaluation
Type: in vivo, Oryza sativa, (L.) Tebonnet
Conditions: postemergence, rate 0.0156 kg/ha
Attribute Measured: Herbicidal rating ORYSAT
API note: the answer field is a bare number with no unit suffix.

Below, 2 compounds whose answers are already recorded.
>>> df
                                   compound        attribute_measured  test_result
0  COc1cc(CN2C(=O)CSC2=Nc2cc(-n3c(=O)cc(C(F)(F)F)n(C)c3=O)c(F)cc2Cl)cc(OC)c1OC [Compound 140]  Herbicidal rating ORYSAT          0.5
1  CCOC(=O)CN1C(=O)C(OC)SC1=Nc1cc(-n2c(=O)cc(C(F)(F)F)n(C)c2=O)c(F)cc1Cl (stereo not drawn) [Compound 160]  Herbicidal rating ORYSAT          2.0

Kindly review the next compound as well.
Note to self: Herbicidal rating ORYSAT recorded for Cc1ccc(CN2C(=O)CSC2=Nc2cc(-n3c(=O)cc(C(F)(F)F)n(C)c3=O)c(F)cc2Cl)cc1Cl [Compound 149] was 0.5

====

System: ORYSAT (Rice, Tebonnet)
Test: Postemergence herbicidal evaluation
Assay type: in vivo, Oryza sativa, (L.) Tebonnet
Conditions: postemergence, rate 0.0625 kg/ha
Attribute Measured: Herbicidal rating ORYSAT
API note: the answer field is a bare number with no unit suffix.

Note to self: Herbicidal rating ORYSAT recorded for `Cn1c(C(F)(F)F)cc(=O)n(-c2cc(N=C3SCC(=O)N3Cc3ccccn3)c(Cl)cc2F)c1=O` was 3.0

Note to self: Herbicidal rating ORYSAT recorded for CC(C)S(=O)(=O)NC(=O)CC1SC(=Nc2cc(-n3c(=O)cc(C(F)(F)F)n(C)c3=O)c(F)cc2Cl)N(C)C1=O (stereo not drawn) was 3.0

Note to self: Herbicidal rating ORYSAT recorded for `Cn1c(C(F)(F)F)cc(=O)n(-c2cc(N=C3SCC(=O)N3Cc3ccncc3)c(Cl)cc2F)c1=O` was 3.0

====

System: CYPSE (Flatsedge)
Assay: Postemergence weed control under flooded paddy conditions
Assay type: in vivo, Cyperus serotinus
Settings: Rate 0.1250 kg/ha, postemergence weeds, rated 3 to 4 weeks after treatment
Catalogue of Herbicidal rating CYPSE values
API note: the answer field is a bare number with no unit suffix.

Below, 2 compounds whose answers are already recorded.
>>> df
                                   compound  test_result
0  C=CCN1C(=O)C(CC(=O)NS(=O)(=O)CC)SC1=Nc1cc(-n2c(=O)cc(C(F)(F)F)n(C)c2=O)c(F)cc1Cl (stereo not drawn) [Compound 104]          0.0
1  C=CCN1C(=O)C(CC(=O)OCCF)SC1=Nc1cc(-n2c(=O)cc(C(F)(F)F)n(C)c2=O)c(F)cc1Cl (stereo not drawn) [Compound 86]          3.0

Kindly review the next compound as well.
Entry C=CCN1C(=O)C(CC(=O)NS(=O)(=O)c2ccccc2)SC1=Nc1cc(-n2c(=O)cc(C(F)(F)F)n(C)c2=O)c(F)cc1Cl (stereo not drawn) [Compound 101] , CYPSE (Flatsedge) data, Herbicidal rating CYPSE value: 0.0

====

Catalogue of Herbicidal rating TRZAWR values
Test system: TRZAWR (Wheat, Winter, cv Riband)
Test: Postemergence herbicidal evaluation
Assay type: in vivo, Triticum aestivum
Details: postemergence, rate 0.0156 kg/ha

Below, 3 compounds whose answers are already recorded.
                                   compound        attribute_measured  test_result
0  CCN1C(=O)CSC1=Nc1cc(-n2c(=O)cc(C(F)(F)F)n(C)c2=O)c(F)cc1Cl [Compound 159]  Herbicidal rating TRZAWR          2.5
1  Cn1c(C(F)(F)F)cc(=O)n(-c2cc(N=C3SCC(=O)N3Cc3ccc(F)cc3)c(Cl)cc2F)c1=O [Compound 151]  Herbicidal rating TRZAWR          2.5
2  Cn1c(C(F)(F)F)cc(=O)n(-c2cc(N=C3SCC(=O)N3Cc3ccccn3)c(Cl)cc2F)c1=O [Compound 131]  Herbicidal rating TRZAWR          3.0

Note to self: Herbicidal rating TRZAWR recorded for CCOC(=O)CN1C(=O)C(OC)SC1=Nc1cc(-n2c(=O)cc(C(F)(F)F)n(C)c2=O)c(F)cc1Cl (stereo not shown) [Compound 160] was 3.0

====

Catalogue of CYPSE herbicidal effect rating values
Tested on: CYPSE (Flatsedge)
Test: Preemergence weed control under flooded paddy conditions
Format: in vivo, Cyperus serotinus
Conditions: 0.1250 kg/ha, rated 3-4 weeks after treatment
API note: the answer field is a bare number with no unit suffix.

Below, 4 compounds whose answers are already recorded.
In [3]: df
Out[3]:
                                   compound  test_result
0  C=CCOC(=O)CC1SC(=Nc2cc(-n3c(=O)cc(C(F)(F)F)n(C)c3=O)c(F)cc2Cl)N(CC=C)C1=O (centres unmarked) [Compound 65]          0.0
1  C=CCN1C(=O)C(CC(=O)OCCF)SC1=Nc1cc(-n2c(=O)cc(C(F)(F)F)n(C)c2=O)c(F)cc1Cl (centres unmarked) [Compound 86]          3.0
2  CC(C)C[C@@H](C(=O)O)N1C(=O)CSC1=Nc1cc(-n2c(=O)cc(C(F)(F)F)n(C)c2=O)c(F)cc1Cl [Compound 71]          3.0
3  C#CCOC(=O)CC1SC(=Nc2cc(-n3c(=O)cc(C(F)(F)F)n(C)c3=O)c(F)cc2Cl)N(C)C1=O (centres unmarked) [Compound 90]          0.0

Kindly review the next compound as well.
Note to self: CYPSE herbicidal effect rating recorded for COC(=O)C(C)OC(=O)CN1C(=O)CSC1=Nc1cc(-n2c(=O)cc(C(F)(F)F)n(C)c2=O)c(F)cc1Cl (centres unmarked) [Compound 116] was 7.0

====

System: CASOB (Sicklepod)
Assay: Preemergence herbicidal evaluation
Format: in vivo, Cassia obtusifolia
Conditions: preemergence, 0.5000 kg/ha, rated 4-5 weeks after treatment, 0-9 scale
Catalogue of CASOB rating values
API note: the answer field is a bare number with no unit suffix.

In [3]: df
Out[3]:
                                   compound  test_result
0  CCOC(=O)CN1C(=O)C(CC(=O)NO)S/C1=N/c1cc(-n2c(=O)cc(C(F)(F)F)n(C)c2=O)c(F)cc1Cl (stereo not drawn)          7.0

Note to self: CASOB rating recorded for C=CCN1C(=O)C(CC(=O)NS(C)(=O)=O)SC1=Nc1cc(-n2c(=O)cc(C(F)(F)F)n(C)c2=O)c(F)cc1Cl (stereo not drawn) was 9.0

Note to self: CASOB rating recorded for CN1C(=O)C(CC(=O)NS(=O)(=O)c2ccccc2)SC1=Nc1cc(-n2c(=O)cc(C(F)(F)F)n(C)c2=O)c(F)cc1Cl (stereo not drawn) was 4.0
